Form: system (full length MPS1 (Homo sapiens, UniProt P33981)), quantity (IC50), values below.
# number only, unit nM dropped from output

# count of solved cases: 3
COc1cc(-c2ccc(Nc3cc4c(cn3)cc(-c3cnn(C)c3)n4C(=O)OC(C)(C)C)c(Cl)c2)ccn1 [Example 46]	75
CC(=O)c1ccccc1Nc1cc2c(cn1)cc(-c1cnn(C)c1)n2C(=O)OC(C)(C)C [Example 9]	77
Cn1cc(-c2cc3cnc(Nc4ccc(-c5cncn5C)cc4Cl)cc3n2C(=O)OC2CCCC2)cn1 [Example 78]	11

As a next step, examine the compound that follows.
Task: Under full length MPS1 (Homo sapiens, UniProt P33981): IC50 value of Cn1cc(-c2cc3cnc(Nc4ccc(F)cc4Cl)cc3[nH]2)cn1 [Example 130] ?
Result: 510

Cited source for all entries: patent US9371319B2
